Assign EC50 to each entry below.
Target: hNurr1_RXRγFL (NURR1/RXRγ heterodimer) (Homo sapiens, UniProt P43354+P48443)
Sequence (P43354 328-598): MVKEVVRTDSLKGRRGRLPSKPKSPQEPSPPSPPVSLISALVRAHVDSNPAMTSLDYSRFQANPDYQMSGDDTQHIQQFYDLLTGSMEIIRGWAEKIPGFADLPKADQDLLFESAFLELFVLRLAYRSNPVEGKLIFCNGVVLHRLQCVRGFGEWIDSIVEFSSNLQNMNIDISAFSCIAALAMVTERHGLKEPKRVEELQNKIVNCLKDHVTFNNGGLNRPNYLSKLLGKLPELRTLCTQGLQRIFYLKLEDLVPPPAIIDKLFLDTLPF
Sequence (P48443 whole entry, the tested form may be a part): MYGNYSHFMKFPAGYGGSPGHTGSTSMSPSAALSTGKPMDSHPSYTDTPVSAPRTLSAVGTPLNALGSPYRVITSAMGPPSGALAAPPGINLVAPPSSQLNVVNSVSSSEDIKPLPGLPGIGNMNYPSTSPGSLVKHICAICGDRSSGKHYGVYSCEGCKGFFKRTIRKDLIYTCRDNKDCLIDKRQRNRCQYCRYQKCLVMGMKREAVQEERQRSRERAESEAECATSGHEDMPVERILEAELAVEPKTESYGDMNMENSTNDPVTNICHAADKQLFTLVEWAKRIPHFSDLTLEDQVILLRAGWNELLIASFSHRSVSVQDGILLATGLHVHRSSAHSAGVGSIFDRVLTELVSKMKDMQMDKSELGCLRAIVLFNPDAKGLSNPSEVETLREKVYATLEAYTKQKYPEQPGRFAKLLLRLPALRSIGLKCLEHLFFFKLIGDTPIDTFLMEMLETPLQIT
Assay: Transactivation assay in Cos-7 cells, NURR-1-Gal4 / RXRγ, luciferase reporter
Conditions: Cos-7 cells, overnight incubation
One number for each entry, in nM.

Some compounds with known EC50 results, for comparison:
INSERT INTO results (mol, metric_name, value_observed) VALUES
  ('COC(=O)c1ccc(Cc2cc3cc(Cl)ccc3n2S(=O)(=O)c2ccc3c(c2)C(C)(C)CO3)cc1', 'EC50', 154),
  ('CC(C)(C)c1cccc(S(=O)(=O)n2c(Cc3ccc(C(=O)O)c(F)c3)cc3cc(C(F)(F)F)ccc32)c1', 'EC50', 943),
  ('O=C(O)c1ccc(Cc2cc3cc(C(F)(F)F)ccc3n2S(=O)(=O)c2ccc(N3CCOCC3)nc2)cc1', 'EC50', 917);

// each compound listed below needs its EC50
1. Cn1nccc1-c1cccc(S(=O)(=O)n2c(Cc3ccc(C(=O)O)cc3)cc3cc(C(F)(F)F)ccc32)c1
2. CC(C)(C)c1cccc(S(=O)(=O)n2c(Cc3ccc(CNS(C)(=O)=O)cc3)cc3cc(C(F)(F)F)ccc32)c1
3. O=C(O)c1ccc(Cc2cc3cc(C(F)(F)F)ccc3n2S(=O)(=O)c2ccc(-c3ccccc3)s2)cc1
4. CC(C)(C)c1cccc(S(=O)(=O)n2c(Cc3csc(C(=O)O)c3)cc3cc(C(F)(F)F)ccc32)c1

A.
1. 617
2. 316
3. 778
4. 8

// each compound listed below needs its EC50
1. O=C(O)c1ccc(Cc2cc3cc(C(F)(F)F)ccc3n2S(=O)(=O)c2cccc(OC(F)(F)F)c2)cc1
2. CC(C)c1cccc(S(=O)(=O)n2c(Cc3ccc(C(=O)O)cc3)cc3cc(Cl)ccc32)c1
3. Cc1cc(Cc2cc3cc(C(F)(F)F)ccc3n2S(=O)(=O)c2cccc(C(C)(C)C)c2)c(F)cc1C(=O)O

A.
1. 638
2. 1130
3. 479
